- study.target: T1, murine PILRB (mPILRB1) (mouse, UniProt Q2YFS2 29-224)
- T1 construct: whole, on cells; Ectopically expressed on 293 cells; also called mouse PILRB
- T1 sequence (Q2YFS2 29-224): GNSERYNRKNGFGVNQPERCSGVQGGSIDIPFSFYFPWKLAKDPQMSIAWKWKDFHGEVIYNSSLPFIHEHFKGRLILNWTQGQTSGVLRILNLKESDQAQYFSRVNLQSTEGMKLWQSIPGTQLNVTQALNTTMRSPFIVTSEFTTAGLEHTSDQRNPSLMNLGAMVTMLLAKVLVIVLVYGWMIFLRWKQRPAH
- protocol.notes: flow cytometry, hybridoma conditioned medium on 293 cells expressing the target; MFI relative to 293 parental cells
observable: MFI relative to 293 parental cells

Given item hPA-005 (antibody, V domains shown, Mouse hybridoma antibody, tested as conditioned medium or purified) VH: QVILKESGPGILQSSQTLSLTCSFSGFSLSTFGMGVGWIRQPSGKGLESLAHIWWDDDKFYNPALKSRLTISKDTSKSQVFLKIANVDTADIATYYCTRIEDYGSYFAYWGQGTTLTVSS VL: DVQMNQSPSSLSASLGDPITITCHASQNIHVWLNWYQQRPGNIPRLLIYKASNLHTGVPSRFSGSGSGTGFTLTISSLQPEDIATYYCQQGQSYPYTFGGGTKLEIK , the value recorded as its MFI relative to 293 parental cells is 0.5 fold over 293 parental cells
